Reference for the values: paper PMC8345219

- Tested on: HEK293 cells stably transfected with CMKLR1-eYFP
- ASSAY NOTES: Resazurin-based cell viability assay, HEK293-CMKLR1
- CONDITION SUMMARY: Homo sapiens; HEK293-CMKLR1, 72 h; read-out: IC50 (toxicity)
- Procedure: HEK293 cells stably transfected with CMKLR1-eYFP, empty HEK293 cells (15,000 cells in 100 µL suspension/well), or HMEC-1 cells (5000 cells in 100 µL suspension/well) in their respective cell culture media were seeded in 96 well plates (coated with poly D-lysine for HEK cells) and incubated at standard conditions overnight. […] After 1 h incubation time, the conversion of the resazurin was detected by measuring the fluorescence intensity at λem = 590 nm. […]
ASSAY ENDPOINT: pIC50
// returns pIC50 (minus log10 of molar concentration), number only

Give pIC50 (HEK293 cells stably transfected with CMKLR1-eYFP) of the following compound: CN(Cc1cnc2nc(N)nc(N)c2n1)c1ccc(C(=O)N[C@@H](CCC(=O)O)C(=O)O)cc1 [MTX, Methotrexate, reference compound]
6.33
